System: MS2 coat protein
Procedure Summary: apparent KD of MS2 coat protein; designed switch direction (-1 OFF switch, 1 ON switch): 1; higher = weaker reporter binding
Run Parameters: Eterna round: R95; input ligand: none

Sequence Text	Experimental Target	apparent KD of MS2 coat protein
AGGCGGAUAUCACAGGAUAUGUGCGCGUUCACAUGAGGAUCACCCAUGUAAAGGACGAGCCAAAAGCAGAAGGGUGACCACGCGA [Aedorlebe] (puzzle: Same State 2)	MS2 coat protein	25.4 nM
UAUAAACAUGAGGAUCACCCAUGUAAUAAUAUGGGAGGAUAUCAGAAUGUAUUUAUGUAAUGAGAAGGCCUAAUAU [Mat - Same State 1 - Mod of Eli - D69] (puzzle: Same State 1)	MS2 coat protein	372 nM
AGUCCAGCCUGAGCUGGACAAAAGCAUGUACAUGAGGAUCACCCAUGUCAUGUACAAGCUUUUUGCACGUCUUAAAA [Mat - hsa-mir-208a - Mod of JL - D13] (puzzle: Sensor for hsa-mir-208a)	MS2 coat protein	542 nM
AACAAUCUAUCUGAGGAUAUCAUGAAAAAAACAUGAGGAUCACCCAUGUGCAGGAAAACUGCAUAUGAGAAGGCAGAUAGAUUGU [salish99_SS2_r3_002] (puzzle: Same State 2)	MS2 coat protein	769 nM
UCUUGGUUUUUGCUCGUUUUUUGUGUUGAACAUGAGGAUCACCCAUGUAUUGUACAGUCCAAUUUAAUAAUGGUCCA [JMF 4] (puzzle: Sensor for hsa-mir-208a)	MS2 coat protein	41.6 nM
GGUCCAGCCUGAGCUGGACAAAAGCAUGUACAUGAGGAUCACCCAUGUCAUGUACAAGCUUUUUGCUCGUCAUAAAU [Mat - hsa-mir-208a - 96] (puzzle: Sensor for hsa-mir-208a)	MS2 coat protein	668 nM
AAAAUACAUGAGGAUCACCCAUGUCUAAAGAACGGAGGAUAUAGGCGUACAAAACACGCACUAGAAGGCUGGGUGC [Tesoonge] (puzzle: Same State 1)	MS2 coat protein	155 nM
AACAAUCUAUCUGAGGAUAUCAUGAUAAGAACAUGAGGAUCACCCAUGUGCAGGAAAACUGCAUAUGAGAAGGCAGAUAGAUUGG [Mat - Same State 2 - Mod - D19] (puzzle: Same State 2)	MS2 coat protein	472 nM
AACAAUCUAUCUGAGGAUAUCAUGAAAUAAACAUGAGGAUCACCCAUGUGCAUGAAAACUGCAUAUGAGAAGGCAGAUAGAUUGA [salish99_ss2_r3_038] (puzzle: Same State 2)	MS2 coat protein	472 nM
UCUUGGUUUUUGCUCGUUUUUUGUGUUGAACAUGAGGAUCACCCAUGUAUUGUACGGUCCAAUUUAAUAGUGGUCCG [JMF 24] (puzzle: Sensor for hsa-mir-208a)	MS2 coat protein	28 nM

* * *

System: MS2 coat protein
Procedure Summary: apparent KD of MS2 coat protein; designed switch direction (-1 OFF switch, 1 ON switch): -1; higher = weaker reporter binding
Run Parameters: input ligand: microRNA oligo, concentration not stated
Outcome Measure: apparent KD of MS2 coat protein (µM)

Sequence Text	Outcome Measure	Meas Value
UGAUCAGACCGAGGAUAUACAUGUAGGACCCACGUGAGUGGGUCCAUUACAUGAGGAUCACCCAUGUAGAAGGCGGUCUGAUCU [JL ENG2 1.90] (Eterna round: R96, puzzle: Exclusion NG 2)	apparent KD of MS2 coat protein	0.0977
ACUAAAUAAACAAGCAAUAAUCCAUCGUCUUAUACUAAAACAUGAGGAUCACCCAUGUAACAGGUGGUGUUAAAUAA [JR_Sensorv2_tov2_Sub1202] (Eterna round: R96, puzzle: Sensor v2, turn-off variant 2)	apparent KD of MS2 coat protein	0.0406
AUCAGCUCGUGAGGAUAUACAUGAUAGAUCGAUUAAUUAAUUAAUUUAACAUGAGGAUCACCCAUGUAGAAGGUACGAGCUGAU [ENG2/1-C3] (Eterna round: R96, puzzle: Exclusion NG 2)	apparent KD of MS2 coat protein	0.0396
